Data provenance: patent US20090082400A1

# protocol-text: Pharmacokinetic parameters of oral tacrolimus in the presence of Q-Captisol in healthy human volunteers
# Type: in vivo
# conditions: male, plasma, Period 2: 1 mg oral tacrolimus + Q-Captisol po 100 mg three times per day Days 12-14
readout: Tmax
Lab note: write values as number then unit, every time.

# compound C=CC[C@@H]1/C=C(\C)C[C@H](C)C[C@H](OC)[C@H]2O[C@@](O)(C(=O)C(=O)N3CCCC[C@H]3C(=O)O[C@H](/C(C)=C/[C@@H]3CC[C@@H](O)[C@H](OC)C3)[C@H](C)[C@@H](O)CC1=O)[C@H](C)C[C@@H]2OC ; its Tmax = 1.28 h
